Examples of molecules with documented TGI follow.
system: UACC-62 melanoma; assay: NCI tumour cell line growth inhibition, 48 h
Where a SMILES comes first, the peptide text is derived from it. [ ]: non-standard residue; d: D form. The star is where a group is joined. ξ: configuration not given here. NMeY = CN[C@@H](Cc1ccc(O)cc1)C(=O)O; Cbz = O=C(OCc1ccccc1)*; ξA = CC(N)C(=O)O

Use the examples below as a reference point.
[[record]]
molecule = "COc1ccc2cccc(C(=N)c3ccc(C)c4c3CCC4)c2c1"
target_system = "UACC-62 melanoma"
result_value = "15.8 µM"

[[record]]
molecule = "CN1C(=O)c2cc(Cl)nc3c(NC(=O)c4cccc(Cl)c4)c(Cl)c(NC(=O)c4cccc(Cl)c4)c1c23"
target_system = "UACC-62 melanoma"
result_value = "3.76 µM"

[[record]]
molecule = "COc1ccc(S(=O)(=O)N/N=C/C(=O)O)cc1"
target_system = "UACC-62 melanoma"
result_value = "984 µM"

[[record]]
molecule = "[O-]c1c2cc(-[n+]3c(-c4ccccc4)cc(-c4ccccc4)cc3-c3ccccc3)cc1CO[C@@H](c1ccccc1)[C@H](c1ccccc1)OCc1cccc(n1)CO[C@@H](c1ccccc1)[C@H](c1ccccc1)OC2"
target_system = "UACC-62 melanoma"
result_value = "1.68 µM"

[[record]]
molecule = "O=C(Cn1c2ccc(Br)cc2c2nc3ccccc3nc21)NC1CCCCC1"
target_system = "UACC-62 melanoma"
result_value = "> 100 µM"

[[record]]
molecule = "CC(C)OP(=O)(CP(=O)(OC(C)C)OC(C)C)OC(C)C.[CH3][Sn]([Br])([Br])[Br]"
target_system = "UACC-62 melanoma"
result_value = "> 100 µM"

[[record]]
molecule = "COc1cccc(-c2nn(-c3ccccc3)cc2-c2ccnc(NCCNC(=O)Nc3ccc(Cl)c(Cl)c3)c2)c1"
target_system = "UACC-62 melanoma"
result_value = "4.51 µM"

[[record]]
molecule = "COc1cc(S(=O)(=O)Nc2nc(-c3ccc(N4C(=O)/C(=C/c5ccccc5)N=C4c4ccccc4)cc3)cs2)ccc1Cl"
target_system = "UACC-62 melanoma"
result_value = "50.8 µM"

[[record]]
molecule = "CC1=NN(C(=O)CC(=O)Nc2cccc(Cl)c2)C(=O)C1N=Nc1ccc(S(N)(=O)=O)cc1 (configuration not stated)"
target_system = "UACC-62 melanoma"
result_value = "> 100 µM"

[[record]]
molecule = "CCOC(=O)c1c2c(n(C)c1-c1ccccc1)C(=O)C(C)=CC2=O"
target_system = "UACC-62 melanoma"
result_value = "23.9 µM"


Fill in TGI for record O=C1OCC(C(=O)c2cccc(O)c2)C1=O (configuration not stated)
> 100 µM

Fill in TGI for record CO[C@H]1C=C[C@]23c4cc5c(cc4CN(CC2O)[C@@H]3C1)OCO5 (some centres not stated)
19.6 µM

Fill in TGI for record `O=C(c1ccccc1F)c1c(NCc2ccccc2)c(=O)c1=O`
> 100 µM

Fill in TGI for record `COc1ccc(Cn2nc(OCc3ccccn3)c3cc([N+](=O)[O-])ccc32)cc1`
> 100 µM

Fill in TGI for record COc1ccc(C[C@@H](C(=O)NCC(N)=O)N(C)C(=O)[C@@H]2CCCN2C(=O)[C@H](CC(C)C)NC(=O)C(C)NC(=O)OCc2ccccc2)cc1 (some centres not stated) (Cbz-[ξA]LP[NMeY](Me)G-NH2)
> 100 µM

Fill in TGI for record `COc1ccc(C(=O)Cc2cc(OC)ccc2OC)cc1`
> 100 µM

Fill in TGI for record COc1ccc(N2C(=O)C3c4[nH]c5ccc(C)cc5c4C4CCC(C(C)C)CC4C3C2=O)cc1 (configuration not stated)
> 100 µM

Fill in TGI for record `O=C1C=CC(=O)c2c(O)c(N3CCSCC3)c(Cl)c(O)c21`
1.75 µM

Fill in TGI for record `CCN(CC)CCOc1ccc(/C=C2\C[C@H]3[C@@H]4CC=C5C[C@@H](OC(C)=O)CC[C@]5(C)[C@H]4CC[C@]3(C)[C@H]2OC(C)=O)cc1OC`
24.8 µM

Fill in TGI for record `c1ccc2c(c1)nc(NCCN1CCNCC1)c1c3ccccc3[nH]c21`
3.69 µM

Fill in TGI for record `COc1cc(N=Nc2cccc(S(=O)(=O)O)c2)c(C)cc1N=Nc1ccc(/C=C/c2ccc(N=[N+]([O-])c3ccc(/C=C/c4ccc(N=Nc5cc(C)c(N=Nc6cccc(S(=O)(=O)O)c6)cc5OC)cc4)c(S(=O)(=O)O)c3)cc2S(=O)(=O)O)cc1`
> 100 µM

Fill in TGI for record `CN(C)c1ccc(C(=NNC(=O)c2cc3ccccc3[nH]2)c2ccc(N(C)C)cc2)cc1`
> 54 µM

Fill in TGI for record CC1CCC(O)C(C(O)CC2CC(=O)N(C)C(=O)C2)C1 (configuration not stated)
> 100 µM

Fill in TGI for record COc1ccc(C2CC(c3c(C)nn(-c4ccccc4)c3-c3ccc(C)cc3O)=NN2c2ccccc2)cc1 (configuration not stated)
> 100 µM

Fill in TGI for record `CC1(C)OC[C@@H](/C=C\CCO[Si](c2ccccc2)(c2ccccc2)C(C)(C)C)N1C(=O)c1ccccc1`
33.1 µM
